Taken from patent US7101878B1.

Overview of recorded half-life for various compounds
- test: Pharmacokinetic studies / bioavailability in rats
- Assay type: in vivo, rat
- condition-info: male, rat, plasma, iv, 10 mg/kg, rat male
Give the number; min is assumed, so skip it.

In the examples that follow, each entry is paired with its recorded half-life.
COc1cc(OC)c(NC(=O)c2ccc(Cc3cc4c(cc3OC)C(C)(C)CCC4(C)C)o2)c(OC)c1: 90
Cc1cc2c(cc1Cc1ccc(C(=O)NCc3nc4ccccc4[nH]3)o1)C(C)(C)CCC2(C)C: 66
Cc1cc2c(cc1Cc1ccc(C(=O)NCC3CCCC(CNc4nccc(NCC5CCCO5)n4)C3)o1)C(C)(C)CCC2(C)C (stereo not drawn): 180
COc1ccc(CNC(=O)c2ccc(Cc3cc4c(cc3C)C(C)(C)CCC4(C)C)o2)cc1: 58
Cc1cc2c(cc1Cc1ccc(C(=O)NCC3CCC(C#N)CC3)o1)C(C)(C)CCC2(C)C (stereo not drawn): 40
Cc1cc2c(cc1Cc1ccc(C(=O)NCc3cccs3)o1)C(C)(C)CCC2(C)C: 55

Turning to the following compound.
Exercise: Provide only the value of recorded half-life for `COc1cc(OC)c(NC(=O)c2ccc(Cc3cc4c(cc3C)C(C)(C)CCC4(C)C)o2)c(OC)c1`
Solution: 84

###

- target-under-test: Oxytocin (Homo sapiens)
- Sequence (P30559 1-389): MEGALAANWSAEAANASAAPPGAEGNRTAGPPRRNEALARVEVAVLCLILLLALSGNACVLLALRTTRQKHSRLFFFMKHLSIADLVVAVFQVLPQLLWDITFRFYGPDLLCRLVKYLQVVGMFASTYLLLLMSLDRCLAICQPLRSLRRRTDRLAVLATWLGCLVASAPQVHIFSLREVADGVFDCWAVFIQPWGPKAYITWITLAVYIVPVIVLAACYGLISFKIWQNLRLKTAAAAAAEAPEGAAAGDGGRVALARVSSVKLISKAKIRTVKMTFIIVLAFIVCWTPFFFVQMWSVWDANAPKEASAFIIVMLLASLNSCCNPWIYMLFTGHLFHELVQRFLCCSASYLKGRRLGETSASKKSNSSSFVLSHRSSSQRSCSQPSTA
outcome-measure: Ki

Exercise: Provide only the value of recorded Ki for `COc1cccc(OC)c1NC(=O)c1ccc(Cc2cc3c(cc2C)C(C)(C)CCC3(C)C)o1`
Solution: > 1 µM

###

- target-under-test: N-type Ca2+ Channel (Homo sapiens, UniProt Q00975)
- Sequence (Q00975 whole entry): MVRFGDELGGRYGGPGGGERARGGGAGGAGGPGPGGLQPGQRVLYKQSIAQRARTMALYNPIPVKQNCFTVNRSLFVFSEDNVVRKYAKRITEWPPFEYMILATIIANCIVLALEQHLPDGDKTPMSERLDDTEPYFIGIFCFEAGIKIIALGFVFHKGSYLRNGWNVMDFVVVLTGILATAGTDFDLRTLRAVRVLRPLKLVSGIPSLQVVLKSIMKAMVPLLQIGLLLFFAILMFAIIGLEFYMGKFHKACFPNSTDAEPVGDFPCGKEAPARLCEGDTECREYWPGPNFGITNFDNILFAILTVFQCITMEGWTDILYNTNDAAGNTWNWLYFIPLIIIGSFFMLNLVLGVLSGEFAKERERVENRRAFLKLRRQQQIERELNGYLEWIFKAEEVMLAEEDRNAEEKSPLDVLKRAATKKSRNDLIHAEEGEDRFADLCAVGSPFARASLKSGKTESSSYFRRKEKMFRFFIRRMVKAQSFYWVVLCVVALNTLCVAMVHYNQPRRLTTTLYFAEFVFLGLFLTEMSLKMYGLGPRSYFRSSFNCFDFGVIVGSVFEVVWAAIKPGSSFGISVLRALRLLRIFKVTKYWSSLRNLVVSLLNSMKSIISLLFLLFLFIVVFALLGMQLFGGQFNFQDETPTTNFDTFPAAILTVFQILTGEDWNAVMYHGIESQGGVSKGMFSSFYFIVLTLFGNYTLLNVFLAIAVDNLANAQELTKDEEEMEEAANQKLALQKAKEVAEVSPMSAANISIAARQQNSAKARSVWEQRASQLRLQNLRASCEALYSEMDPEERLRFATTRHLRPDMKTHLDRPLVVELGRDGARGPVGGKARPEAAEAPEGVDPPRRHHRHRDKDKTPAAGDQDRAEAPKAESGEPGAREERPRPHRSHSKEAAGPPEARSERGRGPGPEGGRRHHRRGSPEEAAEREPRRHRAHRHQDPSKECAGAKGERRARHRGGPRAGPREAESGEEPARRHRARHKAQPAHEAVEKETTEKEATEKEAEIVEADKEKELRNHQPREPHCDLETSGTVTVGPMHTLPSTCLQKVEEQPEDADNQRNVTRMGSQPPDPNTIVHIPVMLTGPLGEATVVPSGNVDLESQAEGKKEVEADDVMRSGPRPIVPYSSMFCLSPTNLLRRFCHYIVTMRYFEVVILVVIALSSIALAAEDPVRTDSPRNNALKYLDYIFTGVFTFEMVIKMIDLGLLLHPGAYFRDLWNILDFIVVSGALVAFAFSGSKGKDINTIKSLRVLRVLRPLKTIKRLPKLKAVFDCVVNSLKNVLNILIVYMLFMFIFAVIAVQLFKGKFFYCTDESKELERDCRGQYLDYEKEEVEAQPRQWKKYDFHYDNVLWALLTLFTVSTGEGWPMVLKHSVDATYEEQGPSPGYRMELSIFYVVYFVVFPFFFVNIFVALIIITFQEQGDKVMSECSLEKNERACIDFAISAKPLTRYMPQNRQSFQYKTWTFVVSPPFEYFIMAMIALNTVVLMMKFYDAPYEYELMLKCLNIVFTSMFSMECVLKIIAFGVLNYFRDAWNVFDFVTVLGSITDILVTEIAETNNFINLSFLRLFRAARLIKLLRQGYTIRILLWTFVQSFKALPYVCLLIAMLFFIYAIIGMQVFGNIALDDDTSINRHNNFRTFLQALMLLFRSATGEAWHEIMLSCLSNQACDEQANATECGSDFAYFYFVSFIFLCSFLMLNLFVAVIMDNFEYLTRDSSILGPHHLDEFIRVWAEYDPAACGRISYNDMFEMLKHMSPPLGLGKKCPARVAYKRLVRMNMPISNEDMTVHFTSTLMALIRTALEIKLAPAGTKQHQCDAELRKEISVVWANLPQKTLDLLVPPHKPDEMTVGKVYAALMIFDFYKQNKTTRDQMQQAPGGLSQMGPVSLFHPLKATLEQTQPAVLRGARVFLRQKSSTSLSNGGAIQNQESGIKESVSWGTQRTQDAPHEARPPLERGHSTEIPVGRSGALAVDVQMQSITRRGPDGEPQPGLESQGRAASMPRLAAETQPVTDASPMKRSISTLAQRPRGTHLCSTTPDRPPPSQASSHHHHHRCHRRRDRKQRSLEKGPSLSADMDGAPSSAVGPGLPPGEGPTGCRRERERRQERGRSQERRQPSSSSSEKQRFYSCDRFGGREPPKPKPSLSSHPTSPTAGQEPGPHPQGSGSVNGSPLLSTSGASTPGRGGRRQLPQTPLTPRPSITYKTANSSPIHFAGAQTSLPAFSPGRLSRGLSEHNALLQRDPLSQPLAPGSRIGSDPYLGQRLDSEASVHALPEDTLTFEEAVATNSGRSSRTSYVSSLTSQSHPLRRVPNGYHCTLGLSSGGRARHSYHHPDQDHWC
- test: Selectivity: N-type Ca2+ Channel
pKi: −log10 of the molar value.
outcome-measure: pKi

Exercise: Provide only the value of recorded pKi for `COc1cccc(OC)c1NC(=O)c1ccc(Cc2cc3c(cc2C)C(C)(C)CCC3(C)C)o1`
Solution: < 6.00

###

- target-under-test: mouse GnRH receptor (Mus musculus)
- Construct: expressed in transfected cells; host or cells: 293 cells
- Sequence (Q01776 whole entry): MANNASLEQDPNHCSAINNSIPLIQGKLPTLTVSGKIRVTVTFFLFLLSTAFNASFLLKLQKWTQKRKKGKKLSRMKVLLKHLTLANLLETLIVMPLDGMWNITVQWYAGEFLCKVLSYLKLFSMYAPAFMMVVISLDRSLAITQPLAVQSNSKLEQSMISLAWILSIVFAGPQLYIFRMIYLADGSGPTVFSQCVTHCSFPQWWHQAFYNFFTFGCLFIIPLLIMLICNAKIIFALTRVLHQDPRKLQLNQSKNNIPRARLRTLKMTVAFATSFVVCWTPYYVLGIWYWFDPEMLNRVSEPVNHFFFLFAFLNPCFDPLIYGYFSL
- test: Radioligand binding, 125I-GnRH-A, 293 cells expressing mouse GnRH receptors
- condition-info: 10 uM; read-out: % Inhib. @ 10 uM mGnRH
Overview of recorded inhibition at 10 µM for various molecules
Give the number; % is assumed, so skip it.

Cc1cc2c(cc1Cc1ccc(C(=O)NCCC3OCCO3)o1)C(C)(C)CCC2(C)C [drawing 1591]: 104
COc1ccccc1CN(CCC(c1ccccc1)c1ccccc1)C(=O)c1ccc(Cc2cc3c(cc2C)C(C)(C)CCC3(C)C)o1: 21
COc1cccc(CN(Cc2cccc(Oc3cccc(C(F)(F)F)c3)c2)C(=O)c2ccc(Cc3cc4c(cc3C)C(C)(C)CCC4(C)C)o2)c1OC [drawing 1307]: 75

Exercise: Provide only the value of recorded inhibition at 10 µM for CCN(CCO)C(=O)c1ccc(Cc2cc3c(cc2C)C(C)(C)CCC3(C)C)o1 [drawing 1451]
Solution: 81
